Please consider the recorded IC50 for Cytochrome P450 2C9 (Homo sapiens, UniProt P11712) in what follows.
The answer is to be given in µM; state only the numeric part.

>  <SMILES DATA>
CC(C)(c1ccc(-c2ccncc2)o1)N1CCN(C[C@@H](O)C[C@@H](Cc2ccccc2)C(=O)N[C@H]2c3ccccc3OC[C@H]2O)[C@H](C(=O)NCC(F)(F)F)C1

>  <IC50 / µM>
0.41

$$$$

Asked: Can you look up the measured IC50 of `O=C(N[C@H]1c2ccccc2OC[C@H]1O)[C@H](Cc1ccccc1)C[C@H](O)CN1CCN(Cc2ccc(-c3ccncc3)o2)C[C@H]1C(=O)NCC(F)(F)F` for me?
Given back: 5.5

---

Experiment: Oral bioavailability after peroral administration at 5 mpk in Dog
Format: ADME, organism-based, Canis lupus familiaris
Details: in vivo, 5 mg/kg
TEST READOUT: bioavailability (%)
The answer is to be given in %; state only the numeric part.

Asked: Can you look up the measured bioavailability of `CC(C)(c1ccc(-c2ccncc2)o1)N1CCN(C[C@@H](O)C[C@@H](Cc2ccccc2)C(=O)N[C@H]2c3ccccc3OC[C@H]2O)[C@H](C(=O)NCC(F)(F)F)C1` for me?
Given back: 100

---

Test: Oral bioavailability in Rhesus monkey (dose 10 mg/kg p.o.)
Format: ADME, organism-based, Macaca mulatta
Conditions: in vivo
TEST READOUT: bioavailability (%)
The answer is to be given in %; state only the numeric part.

Asked: Can you look up the measured bioavailability of `CC(C)(c1ccc(-c2ccncc2)o1)N1CCN(C[C@@H](O)C[C@@H](Cc2ccccc2)C(=O)N[C@H]2c3ccccc3OC[C@H]2O)[C@H](C(=O)NCC(F)(F)F)C1` for me?
Given back: 90

---

Assay: Plasma clearance after peroral administration at 5 mg/kg in dog
Format: ADME, organism-based, Canis lupus familiaris
Parameters: dose 5 mg/kg, route oral
Settings: po, read-out: Clp
TEST READOUT: CL/F

Asked: Can you look up the measured CL/F of `O=C(N[C@H]1c2ccccc2OC[C@H]1O)[C@H](Cc1ccccc1)C[C@H](O)CN1CCN(Cc2ccc(-c3ccncc3)o2)C[C@H]1C(=O)NCC(F)(F)F` for me?
Given back: 1.47 L/h/kg

---

Test: Plasma clearance after peroral administration at 10 mpk in dog
Assay type: ADME, organism-based, Canis lupus familiaris
Settings: plasma, po, 10 mg/kg, read-out: Clp
TEST READOUT: CL/F (mL/min/kg)
The answer is to be given in mL/min/kg; state only the numeric part.

Asked: Can you look up the measured CL/F of `CC(C)(C)NC(=O)[C@@H]1CN(Cc2cccnc2)CCN1C[C@@H](O)C[C@@H](Cc1ccccc1)C(=O)N[C@H]1c2ccccc2C[C@H]1O.O` for me?
Given back: 16

---

Consider the following compounds and their measured Cmax readings.
Experiment: Cmax was determine after peroral administration at 5 mg/kg in dog
Format: ADME, organism-based, Canis lupus familiaris
Parameters: dose 5 mg/kg, route oral
Settings: in vivo, po
Your reply should be a number followed by the unit it is expressed in.

>  <SMILES DATA>
O=C(N[C@H]1c2ccccc2OC[C@H]1O)[C@H](Cc1ccccc1)C[C@H](O)CN1CCN(Cc2ccc(-c3ccncc3)o2)C[C@H]1C(=O)NCC(F)(F)F

>  <TEST READOUT>
Cmax

>  <EXPERIMENTAL RESULT>
5300 nM

$$$$

# evaluate next
Asked: Can you look up the measured Cmax of `O=C(N[C@H]1c2ccccc2OC[C@H]1O)[C@H](Cc1ccccc1)C[C@H](O)CN1CCN(Cc2ccc(-c3cccnc3)o2)C[C@H]1C(=O)NCC(F)(F)F` for me?
Given back: 200 nM

Values were extracted from ChEMBL document CHEMBL1136138.
